Biological target: purified human IDO protein (Homo sapiens)
Sequence (P14902 whole entry P110S/E119G): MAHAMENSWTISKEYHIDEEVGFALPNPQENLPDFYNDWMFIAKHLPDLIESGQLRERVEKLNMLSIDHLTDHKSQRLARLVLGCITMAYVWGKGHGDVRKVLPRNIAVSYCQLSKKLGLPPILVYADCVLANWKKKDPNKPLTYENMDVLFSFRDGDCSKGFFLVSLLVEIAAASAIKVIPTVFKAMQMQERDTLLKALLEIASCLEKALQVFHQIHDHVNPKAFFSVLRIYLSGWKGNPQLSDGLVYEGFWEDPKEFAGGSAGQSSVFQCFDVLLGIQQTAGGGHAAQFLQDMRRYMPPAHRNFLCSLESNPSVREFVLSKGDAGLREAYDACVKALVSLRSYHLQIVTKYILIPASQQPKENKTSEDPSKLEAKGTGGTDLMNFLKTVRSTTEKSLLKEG
Assay: Enzymatic IDO assay (kynurenine production, absorbance 480 nm)
Conditions: hIDO IC50, Table 16; recombinant human IDO, enzymatic activity
MEASURE: IC50

Here is how some compounds turned out for IC50.
COMPOUND	SYSTEM UNDER TEST	RESULT
COc1cccc(CON)c1 [compound 1682, O-(3-methoxybenzyl)hydroxylamine]	purified human IDO protein (Homo sapiens)	< 10 µM
COc1ccc(CON)cc1 [compound 1815, O-(4-methoxybenzyl)hydroxylamine]	purified human IDO protein (Homo sapiens)	10 to 100 µM
NOCc1ccc(C(F)(F)F)cc1 [compound 934]	purified human IDO protein (Homo sapiens)	< 10 µM

**Q:** Consider the compound Cc1cccc(CON)c1 [compound 1692, O-(3-methylbenzyl)hydroxylamine] and give its measured IC50.
**A:** 10 to 100 µM
